I'd be grateful if you could share measured %Inh for these entries.
- Test system: RSK2(Kin.Dom.2-C-terminal)
- Construct: gene RPS6KA3
- appliedConditions: concentration: 1 μM, replicates: in singlicate; n = 1;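 further: KINOMEscan kinase panel screen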
# number only, unit % dropped from output

Input: // query %Inh value for entry CCc1ccc(-c2ccc3c(c2)-c2nn(C)cc2S(=O)(=O)N3C)cc1
Output: 63

Input: Recorded %Inh of Cn1c(=O)c(F)c(Nc2ccc(I)cc2F)c2c(=O)n(OC[C@H](O)CO)cnc21 , please.
Output: 38

Input: Look up %Inh for this compound: CN(C)c1cc(-c2ccc3c(N)n[nH]c3c2)nc(N)n1
Output: 0

Input: Record request: %Inh value, item COc1cccc(C2=C(N(C)c3ccccc3)C(=O)NC2=O)c1
Output: 5

Input: # %Inh lookup, item C[C@@H]1CC[C@H](C(=O)NC2CCCCC2)CN1c1cc(-c2ccc3c(N)n[nH]c3c2)nc(N)n1
Output: 28

Input: So what's the measured %Inh for this one? COC(=O)c1c(-c2ccccc2)c2cc(C)ccc2c(=O)n1Cc1ccccc1
Output: 0

Input: Need %Inh of CCCNC(=O)Nc1ccc(Oc2ncnc3ccn(C)c23)cc1 , thanks.
Output: 0

Input: // query %Inh value for entry COc1cccc(C2=C(Nc3cccc(C(=O)O)c3)C(=O)NC2=O)c1
Output: 15

Input: What value of measured %Inh is listed for O=c1cc(N2CCOCC2)nc2n(Cc3ccc(F)c(Cl)c3)ccn12 ?
Output: 0

Input: What measured %Inh goes with COc1cc(Nc2ccnc3ccc(C(F)(F)F)cc23)cc(OC)c1OC ?
Output: 32

Input: Returns the measured %Inh for the input compound. Input: COc1cc2nccc(Nc3ccc(OCc4ccc(NC(C)=O)cc4)cc3)c2cc1OC.Cl
Output: 0

Input: Given the compound Nc1ncnc2c1ncn2-c1ccc(Cl)cc1 , what is its reported %Inh?
Output: 0

Input: Entry Cc1nnc(-c2ccc(C)c(-c3ccc(C(=O)O)cc3)c2)o1 has what %Inh?
Output: 2

Input: // %Inh lookup, key: Cc1ccc(-c2ccc3c(ccc4sc5c(c43)NC[C@@H](C)N=C5N(C)C)n2)cn1
Output: 0

Input: May I ask what %Inh has been recorded for Cl.NS(=O)(=O)c1cccc(Nc2cc(-c3ccc(F)cc3)n[nH]2)c1 ?
Output: 0

Input: # get_value(readout='%Inh', item= Nc1ncnc2c1ncn2-c1cccc(F)c1 )
Output: 0

Input: Which %Inh reading was recorded for the compound COc1cc(Nc2nccc(N3CCC(NC(=O)C(C)c4ccc(Cl)cc4)C3)n2)cc(OC)c1OC (stereo not shown) ?
Output: 1

Input: Which %Inh is reported for this compound? OCCCNc1nccc(-c2c(-c3cccc(C(F)(F)F)c3)nn3cc(C(F)(F)F)ccc23)n1
Output: 5

Input: Any idea what its %Inh is? The compound is Cl.c1ccc(Cn2cnc3cc(Nc4ncnc5ccccc45)ccc32)cc1
Output: 0

====

- Tested on: MAP3K2
- appliedConditions: concentration: 1 μM, replicates: in singlicate; n = 1
Please provide measured %Inh for the entries that follow.
The response must be a number in % with no trailing unit.

Input: Please tell me: %Inh of COc1cccc(C2=C(N(C)c3ccccc3)C(=O)NC2=O)c1 [SB-334865] , system MAP3K2?
Output: 4

Input: Param readout = %Inh; param system = MAP3K2; param query = Cc1nn2c(=O)cc(N3CCOCC3)nc2n1Cc1cccc(Cl)c1Cl [GSK2342769] ; response: value
Output: 16

Input: Notebook entry, MAP3K2 assay: %Inh of CCC(=O)c1c(-c2ccccc2)c2cc(Cl)ccc2c(=O)n1Cc1ccc(C(=O)O)cc1 = ?
Output: 0

Input: Find the measured %Inh: item Nc1ncnc2c1ncn2-c1ccc(Cl)cc1 [AH2635] , target or system MAP3K2.
Output: 0

Input: Lab request: please report %Inh under test system MAP3K2 for COc1cc2ncn(-c3cc(OCCCc4ccccc4)c(C(N)=O)s3)c2cc1OC [GSK205189]
Output: 0

Input: What measured %Inh is associated with CCS(=O)c1ccc(-c2coc3ccc(-c4nnc(C)o4)cc23)cc1 (centres unmarked) on MAP3K2?
Output: 8

Input: What %Inh appears in the records for this compound with MAP3K2? COC(=O)c1c(-c2ccccc2)c2cc(Br)ccc2c(=O)n1Cc1ccc(NC(=O)CCC(=O)O)cc1
Output: 0

Input: Which %Inh is reported with MAP3K2 for this entry: CCc1nc(-c2cccc(C)c2)c(-c2ccncc2)s1 ?
Output: 0

Input: Fill in the recorded %Inh for this compound, with MAP3K2 as test system: Nc1n[nH]c2ncc(-c3ccccc3)cc12 [SB-517081]
Output: 15

Input: Give %Inh (MAP3K2) of the following compound: CCCNC(=O)Nc1ccc(Oc2ncnc3ccn(C)c23)cc1
Output: 15

Input: Query for MAP3K2: what %Inh does the record show for COC(=O)c1c(-c2ccccc2)c2cc(Br)ccc2c(=O)n1Cc1ccc(S(C)(=O)=O)cc1 ?
Output: 0

Input: What measured %Inh is associated with COc1cc2ncn(-c3cc(OCc4ccc(S(C)(=O)=O)cc4)c(C(N)=O)s3)c2cc1OC [GW869979] on MAP3K2?
Output: 9

Input: What value of %Inh on MAP3K2 does O=c1cc(N2CCOCC2)nc2n(Cc3ccc(F)c(Cl)c3)ccn12 [GSK2297099] have?
Output: 10

Input: Any idea what %Inh came out for Cc1ccccc1COc1cc(-n2cnc3cc(Cl)ccc32)sc1C(N)=O [GW813349] on MAP3K2?
Output: 5

Input: Look up %Inh with MAP3K2 for this compound: CCC(=O)c1c(-c2ccccc2)c2cc(Cl)ccc2c(=O)n1Cc1cc(S(C)(=O)=O)n(CC(F)F)n1
Output: 0

Input: Query the reported %Inh for MAP3K2; item: Cc1nnc(-c2ccc(C)c(-c3ccc(C(=O)O)cc3)c2)o1 [GW608005]
Output: 0

Input: API: value(readout=%Inh, system=MAP3K2) for record COc1cc(Nc2nccc(N3CCC(NC(=O)C4COc5ccccc5O4)C3)n2)cc(OC)c1OC (centres unmarked) [GSK1379761]
Output: 10

Input: Lab note: need %Inh for Nc1ncnc2c1ncn2-c1cccc2ccccc12 [SKF-97184] on MAP3K2, anyone have it?
Output: 18

Input: Give recorded %Inh with MAP3K2 for the following compound: Nc1nc(N)c2nc(-c3ccccc3)[nH]c2n1 [SKF-12778]
Output: 26

Input: GET /values?readout=%Inh&system=MAP3K2&item= COC(=O)c1c(-c2ccccc2)c2cc(C)ccc2c(=O)n1Cc1ccccc1
Output: 0

Input: Form entry - test system: MAP3K2; read-out: %Inh; compound: O=C(Nc1n[nH]c2cc(-c3ccccc3F)ccc12)C1CC1 [SB-733371]
Output: 0

Input: Which %Inh is reported with MAP3K2 for this entry: COc1cc2nccc(Nc3ccc(OCc4ccc(NC(C)=O)cc4)cc3)c2cc1OC.Cl [GW440135] ?
Output: 18

Input: API: value(readout=%Inh, system=MAP3K2) for record C[C@@H]1CC[C@H](C(=O)NC2CCCCC2)CN1c1cc(-c2ccc3c(N)n[nH]c3c2)nc(N)n1 [GSK2291363]
Output: 20
